# TARGET DESC: UniProtKB P08173
# Sequence (P08173 whole entry): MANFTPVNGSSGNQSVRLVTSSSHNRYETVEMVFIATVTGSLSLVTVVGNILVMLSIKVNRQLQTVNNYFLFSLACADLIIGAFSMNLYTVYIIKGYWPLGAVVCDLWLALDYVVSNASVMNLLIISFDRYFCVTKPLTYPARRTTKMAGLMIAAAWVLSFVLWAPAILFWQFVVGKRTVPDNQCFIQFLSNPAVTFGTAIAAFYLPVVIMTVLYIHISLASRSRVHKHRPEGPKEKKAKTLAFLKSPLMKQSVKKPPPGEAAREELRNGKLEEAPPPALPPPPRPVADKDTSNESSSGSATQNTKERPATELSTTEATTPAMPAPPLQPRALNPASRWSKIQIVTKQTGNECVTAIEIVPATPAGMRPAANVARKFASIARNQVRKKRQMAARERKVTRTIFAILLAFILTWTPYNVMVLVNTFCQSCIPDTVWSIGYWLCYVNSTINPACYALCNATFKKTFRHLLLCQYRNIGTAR
# ASSAY: human FLIPR-based M4 PAM assay (calcium mobilization, CHO-K1 cells with human M4 receptor and Gαqi5)
# EXPERIMENTAL PARAMETERS: inflection point (IP) of dose response curve, acetylcholine added at 20% of maximum response, read-out: M4 FLIPPR Hu IP
pEC50: −log10 of the molar value.
Measured pEC50 accompanies every entry in the list below.

# MOLECULE, pEC50
rows = [
    ("CN1Cc2ccc(-c3nc(C(F)F)ccc3-c3cnc(CC(C)(C)C)o3)cc2C1=O", 7.10),
    ("COc1cc2ccc(-c3nc(C)ccc3-c3cnc(CC4CCCC4)o3)cc2nn1", 7.89),
    ("CC(C)(F)Cc1ncc(-c2ccc(C#N)nc2-c2ccc3cccnc3c2)o1", 6.85),
    ("CC(Cc1ncc(-c2ccc(C#N)nc2-c2ccc3cccnc3c2)o1)C(C)(C)F (centres unmarked)", 7.17),
    ("CN1Cc2ncc(-c3nc4c(cc3-c3cnc(CC5(C)CCCC5)o3)CCC4)cc2C1=O", 7.59),
    ("N#Cc1ccc(-c2cnc(CC3(F)CCCC3)o2)c(-c2ccc3cccnc3c2)n1", 7.29),
    ("CN1Cc2ccc(-c3nc(C#N)ccc3-c3cnc(CC4(F)CCCC4)o3)cc2C1=O", 7.38),
    ("N#Cc1ccc(-c2cnc(CC3CC3)o2)c(-c2ccc3cccnc3c2)n1", 6.98),
    ("Cc1cn2ccc(-c3nc(C#N)ccc3-c3cnc(CC(C)(C)F)o3)cc2n1", 7.00),
    ("Cn1cnc2cc(-c3nc(C#N)ccc3-c3cnc(CC(C)(C)C(F)(F)F)o3)ccc21", 7.04),
    ("Cc1cn2ccc(-c3ncccc3-c3cnc(CC4(F)CCCC4)o3)cc2n1", 7.12),
    ("COCc1cn2ccc(-c3nc(C#N)ccc3-c3cnc(CC(C)(C)C)o3)cc2n1", 7.11),
    ("Cc1cn2ccc(-c3nc(C#N)ccc3-c3cnc(CCC(C)(C)F)o3)cc2n1", 7.33),
    ("CC(C)(F)CCc1ncc(-c2ccc(C#N)nc2-c2ccn3ccnc3c2)o1", 6.83),
    ("N#Cc1ccc(-c2cnc(CC3(F)CCCC3)o2)c(-c2ccn3ccnc3c2)n1", 7.82),
    ("Cc1cn2ccc(-c3nc(C#N)ccc3-c3cnc(CC(C)(C)C(F)(F)F)o3)cc2n1", 7.14),
    ("Cn1cnc2cc(-c3nc(C(F)F)ccc3-c3cnc(CC4CCCC4)o3)cnc21", 7.35),
]
